Sourced from patent US20110300138A1

The entries below come with measured Inhibition of binding (%) values attached.
# tested target: T1, thyroid stimulating hormone receptor (full length human TSHR) (human, UniProt P16473 22-764)
# T1 construct: Full length TSHR coated onto plastic tubes (TSHR coated tubes, as in WO2004/050708A2); also called TSH receptor
# test summary: competitor ^125I-K1-70 IgG, TSHR coated tubes; 1 µg/mL in HBD
# Protocol: Binding inhibition assays were carried out using TSHR coated tubes as described in WO2004/050708A2. […] After aspiration, the tubes were washed and 100 μL of ¹²⁵I-labelled protein (5×10⁴ cpm) added and incubated for 1 hour at room temperature with shaking. The tubes were then aspirated, washed and counted in a gamma counter. Inhibition of labelled protein binding was calculated as 100×[1−(cpm bound in the presence of test material/cpm bound in the presence of control material)].

// known answers, use as guide
INSERT INTO results (binder, obs_value) VALUES
  ('K1-18 IgG (antibody, V domains shown, Human IgG1 kappa purified from hetero-hybridoma supernatant; it is not part of the secreted protein; also called human monoclonal TSHR autoantibody K1-18 (stimulating)) VH: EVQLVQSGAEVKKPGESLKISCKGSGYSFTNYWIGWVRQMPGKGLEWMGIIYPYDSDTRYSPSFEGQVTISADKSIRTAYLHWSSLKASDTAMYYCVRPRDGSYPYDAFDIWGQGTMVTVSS VL: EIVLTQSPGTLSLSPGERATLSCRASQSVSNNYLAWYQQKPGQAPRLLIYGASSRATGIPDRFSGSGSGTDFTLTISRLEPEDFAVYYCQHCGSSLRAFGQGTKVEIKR', '85.8%'),
  ('K1-18 Fab (Fab, V domains shown) VH: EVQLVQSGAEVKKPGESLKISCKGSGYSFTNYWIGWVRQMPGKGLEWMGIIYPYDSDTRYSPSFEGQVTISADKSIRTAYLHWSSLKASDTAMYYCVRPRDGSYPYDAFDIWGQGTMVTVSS VL: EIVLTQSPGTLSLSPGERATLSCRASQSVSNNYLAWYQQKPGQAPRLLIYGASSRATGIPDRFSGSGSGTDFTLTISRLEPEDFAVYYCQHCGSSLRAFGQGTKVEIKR', '75.6%'),
  ('K1-70 IgG (antibody, V domains shown, Human IgG1 lambda purified from hetero-hybridoma supernatant) VH: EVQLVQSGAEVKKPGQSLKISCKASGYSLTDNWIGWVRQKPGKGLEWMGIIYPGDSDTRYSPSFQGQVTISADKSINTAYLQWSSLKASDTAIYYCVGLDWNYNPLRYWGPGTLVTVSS VL: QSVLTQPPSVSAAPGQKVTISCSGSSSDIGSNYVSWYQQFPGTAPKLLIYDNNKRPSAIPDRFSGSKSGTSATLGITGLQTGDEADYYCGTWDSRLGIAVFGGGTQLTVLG', '90.4%');

Proceeding to the next binder to report its Inhibition of binding (%).
Which value of Inhibition of binding (%) has been reported for K1-70 Fab (Fab, V domains shown) VH: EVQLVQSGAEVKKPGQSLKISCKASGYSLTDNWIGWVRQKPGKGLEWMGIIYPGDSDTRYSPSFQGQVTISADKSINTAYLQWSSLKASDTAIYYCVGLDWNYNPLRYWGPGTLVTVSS VL: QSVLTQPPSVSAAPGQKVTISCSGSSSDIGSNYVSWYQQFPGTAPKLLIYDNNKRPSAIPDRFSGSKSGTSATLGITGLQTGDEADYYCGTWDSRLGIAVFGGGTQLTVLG in the records?
89.5%
